- protocolNotes: Clearance in iv dosed rat
- Type: ADME, organism-based
- appliedConditions: in vivo
metric: clearance
Dear colleague, please send the value followed by its unit.

Illustrative cases are given below, each with its answer.
In [3]: df
Out[3]:
                      structuresmilesstring     metric  experimentalvalue
0  CN(c1c2c(c(O)c3ncccc13)C(=O)N(Cc1ccc(F)c(Cl)c1)C2)S(C)(=O)=O  clearance     3.83 mL/min/kg
1  CN(c1c2c(c(O)c3ncccc13)C(=O)N(Cc1cc(Cl)c(F)cc1F)C2)S(C)(=O)=O  clearance     4.83 mL/min/kg

Shift focus to the following entry.
Identify clearance associated with the compound CN(c1c2c(c(O)c3ncccc13)C(=O)N(Cc1ccc(F)cc1)C2)S(C)(=O)=O
4.67 mL/min/kg

====

- protocolNotes: Half life in iv dosed dog
- Format: ADME, organism-based, Canis lupus familiaris
- appliedConditions: in vivo
metric: half-life (h)
Dear colleague, please return just the value in h, with no unit written.

Worked cases, answers included:
In [3]: df
Out[3]:
                      structuresmilesstring  experimentalvalue
0  CN(c1c2c(c(O)c3ncccc13)C(=O)N(Cc1ccc(F)cc1)C2)S(C)(=O)=O                  7
1  CN(c1c2c(c(O)c3ncccc13)C(=O)N(Cc1ccc(F)c(Cl)c1)C2)S(C)(=O)=O               7.13

We next turn to a different compound, shown below.
# return recorded half-life for entry CN(c1c2c(c(O)c3ncccc13)C(=O)N(Cc1cc(Cl)c(F)cc1F)C2)S(C)(=O)=O
16

====

- protocolNotes: Clearance in iv dosed dog
- Assay type: ADME, organism-based, Canis lupus familiaris
- appliedConditions: in vivo
metric: clearance (mL/min/kg)
# number only, unit mL/min/kg dropped from output

In the examples that follow, each entry is paired with its recorded clearance.
                      structuresmilesstring     metric  quantityunit  experimentalvalue
0  CN(c1c2c(c(O)c3ncccc13)C(=O)N(Cc1cc(Cl)c(F)cc1F)C2)S(C)(=O)=O  clearance     mL/min/kg              0.333
1  CN(c1c2c(c(O)c3ncccc13)C(=O)N(Cc1ccc(F)cc1)C2)S(C)(=O)=O  clearance     mL/min/kg               6.67

Please report the measured clearance for CN(c1c2c(c(O)c3ncccc13)C(=O)N(Cc1ccc(F)c(Cl)c1)C2)S(C)(=O)=O
2.5

====

Quick list: bioavailability per entry.
- protocolNotes: Oral bioavailability in rat
- Format: ADME, organism-based
- appliedConditions: in vivo
Report as a plain number; the unit % is understood.

Known results for compounds:
>>> print(df.to_string())
                      structuresmilesstring  experimentalvalue
0  CN(c1c2c(c(O)c3ncccc13)C(=O)N(Cc1ccc(F)c(Cl)c1)C2)S(C)(=O)=O                  7
1  CN(c1c2c(c(O)c3ncccc13)C(=O)N(Cc1ccc(F)cc1)C2)S(C)(=O)=O                 15

Would you kindly look at the next entry?
Give recorded bioavailability. CN(c1c2c(c(O)c3ncccc13)C(=O)N(Cc1cc(Cl)c(F)cc1F)C2)S(C)(=O)=O
9

====

Consider the following compounds and their measured pIC50 readings.
- protocolNotes: Inhibition of HIV integrase strand transfer activity
- Design: species or system Human immunodeficiency virus
Remember, pIC50 is on a log scale: it is -log10 of the molar concentration.

>>> df
                                   compound  metric  experimentalvalue
0  CN(c1c2c(c(O)c3ncccc13)C(=O)N(Cc1cccc(Cl)c1F)C2)S(C)(=O)=O   pIC50               7.21
1  CC(=O)Nc1cc(F)ccc1CN1Cc2c(c(O)c3ncccc3c2N(C)S(C)(=O)=O)C1=O   pIC50               8.30
2  Cc1nnc(C(=O)NC(C)(C)c2nc(C(=O)NCc3ccc(F)cc3)c(O)c(=O)n2C)o1 [RALTEGRAVIR]   pIC50               7.40
3  CN(c1c2c(c(O)c3ncccc13)C(=O)N(Cc1cc(Cl)c(F)cc1F)C2)S(C)(=O)=O   pIC50               7.41

Given the compound CN(c1c2c(c(O)c3ncccc13)C(=O)N(Cc1ccc(F)c(Cl)c1F)C2)S(C)(=O)=O , write its reported pIC50.
6.87

Please give measured pIC50 of the following entry: CN(c1c2c(c(O)c3ncccc13)C(=O)N(Cc1ccccc1)C2)S(C)(=O)=O
6.92

The reported measurements were obtained from ChEMBL document CHEMBL1153964.
